- Test system: OVCAR-3 ovarian
- assayInfo: NCI tumour cell line growth inhibition, 48 h
measurementType: TGI (µM)
Express your answer in µM, writing the number without its unit.

In [3]: df
Out[3]:
                                   molecule  measurementtype  measurednumber
0  CC1CC(c2ccc([N+](=O)[O-])cc2)=Nc2ccccc2S1 (stereo unspecified)              TGI            23.7
1  O=[N+]([O-])c1ccccc1S(=O)(=O)c1cc(O)cc2c1NCCC2              TGI            18.1
2  Oc1ccc2ccccc2c1CN(Cc1c(O)ccc2ccccc12)C1CCCCC1              TGI            41.7
3           CN(C)CCC=C1c2ccccc2C=Cc2ccccc21              TGI            31.1
4  CCN(CC)Cc1cc(Nc2c3ccccc3nc3c4ccccc4n(C)c23)cc(CN(CC)CC)c1O              TGI            11.2
5  ClCc1ccc(-c2ccc(Cn3cnc4nc(Cl)nc(Cl)c43)cc2)cc1              TGI            4.59

Query :: Entry CN1CCc2c(c3ccccc3c3ccccc23)C1 : reported TGI = ?
Result :: 25.6

###

The following compounds are listed with their measured TGI values.
- System: TK-10 renal
- assayInfo: NCI tumour cell line growth inhibition, 48 h

These solved cases illustrate the format of a correct answer.
compound	testTarget	TGI
C#C[C@]1(O)CC[C@H]2[C@@H]3CCC4=CC(=NCCOC(=O)c5cccc6c(=O)c7ccccc7[nH]c56)CC[C@@H]4[C@H]3CC[C@@]21C	TK-10 renal	> 100 µM
c1ccc2c(c1)nc1n2sc2nc3ccccc3n21	TK-10 renal	> 100 µM
Cc1cc(S(=O)(=O)n2ccnc2Oc2cccc(Cl)c2)c(SSc2cc(Cl)c(C)cc2S(=O)(=O)n2ccnc2Oc2cccc(Cl)c2)cc1Cl	TK-10 renal	> 100 µM
COc1cccc2c1C(=O)c1c(O)c3c(c(O)c1C2=O)C[C@@](O)(C(C)O)C[C@@H]3OC1CC(N)C(O)C(C)O1 (stereo not given in full)	TK-10 renal	8.11 µM
Nc1nc(SCCC/C=C/B(O)O)nc2c1ncn2C1OC(COP(=O)(O)O)C(O)C1O (stereo not given)	TK-10 renal	> 203 µM
Nc1ccc(C(c2ccccc2)(c2ccccc2)c2ccccc2)cc1	TK-10 renal	95.3 µM
CCCC1C(CC)C(NC)C(C#N)(C#N)C1(C#N)C#N (stereo not given)	TK-10 renal	34.6 µM
CNC(=S)Nc1sc2c(c1C#N)CCCC2	TK-10 renal	> 75 µM

Query :: Which TGI is reported with TK-10 renal for this entry: CSC1=NN(c2ccccc2)C(=O)C1=C(SC)SC ?
Result :: 74.6 µM

Query :: Which TGI is reported with TK-10 renal for this entry: Cc1ccc([N+](=O)[O-])cc1S(=O)(=O)Nc1ccc(C(=O)/C=C/c2cccs2)cc1 ?
Result :: > 100 µM

###

- Tested on: UO-31 renal
- assayInfo: NCI tumour cell line growth inhibition, 48 h
measurementType: TGI

In [3]: df
Out[3]:
                            molecule   testtarget  measurementtype    result
0  Nc1cc(-c2ccccc2)nn1-c1nsc2ccccc12  UO-31 renal              TGI  > 100 µM
1            CCOC(=O)Nn1c(C)nnc1CC#N  UO-31 renal              TGI  > 100 µM

Query :: Entry O=C1CC(=O)NC(=NN2C(=O)CSC2c2ccccc2)N1 (stereo not drawn) : reported TGI = ?
Result :: > 100 µM

###

- Tested on: PC-3 prostate
- assayInfo: NCI tumour cell line growth inhibition, 48 h
The following compounds are listed with their measured TGI values.

>>> df
                                   compound     testtarget  measurementtype    result
0  COc1ccc(/C=N/c2nc3cc4sc(/N=C/c5ccc(OC)cc5)nc4cc3s2)cc1  PC-3 prostate              TGI  > 100 µM
1  Cc1cc(O)c(C=O)c2c1C(=O)Oc1c(CO)c(O)c3c(c1O2)C(O)OC3=O (stereo not drawn)  PC-3 prostate              TGI  > 100 µM

Kindly consider the entry below.
Query :: Entry CC(C)(C)C(=O)N(C(=S)OCc1ccccn1)c1ccccc1 : reported TGI = ?
Result :: > 100 µM

###

- System: UO-31 renal
- assayInfo: NCI tumour cell line growth inhibition, 48 h
The following compounds are listed with their measured GI50 values.

These solved cases illustrate the format of a correct answer.
>>> df
                                   compound    result
0  CCCS(=O)(=O)Nc1ccc(F)c(C(=O)c2c[nH]c3ncc(Cl)cc23)c1F    6.4 µM
1             O=C(N/N=C/c1ccccc1O)c1ccccc1O   3.12 µM
2  CCc1ccc(CNCC(O)c2ccccc2)cc1 (centres undefined)   18.9 µM
3             CN1CCc2c(c3ccccc3c3ccccc23)C1   3.26 µM
4  CCOC(=O)[C@H]1O[C@@H]1C(=O)N[C@@H](CC(C)C)C(=O)NCCc1ccc(O)cc1  > 100 µM

Query :: Entry O=c1c2cc(F)ccc2sc2c(N3CCNCC3)nc3ccccc3c12 : reported GI50 = ?
Result :: 1.37 µM

Query :: Entry Nc1nc2c(c3ncccc13)C(c1cccc(Br)c1)Cc1ncccc1-2 (centres undefined) : reported GI50 = ?
Result :: 2.6 µM

Query :: Entry CCOC(=O)N1C/C(=C/c2ccc(F)cc2)C(=O)/C(=C/c2ccc(F)cc2)C1 : reported GI50 = ?
Result :: 1.53 µM

Query :: Entry C(#Cc1cnccn1)/C=C\C#Cc1cnccn1 : reported GI50 = ?
Result :: 36 µM

###

- Test system: BT-549 breast
- assayInfo: NCI tumour cell line growth inhibition, 48 h
The following compounds are listed with their measured TGI values.

compoundSmiles	measurementType	result
O=S(=O)(Nc1ccccc1)c1ccc(-c2c3nc(c(-c4ccc(S(=O)(=O)Nc5ccccc5)cc4)c4ccc([nH]4)c(-c4ccc(S(=O)(=O)Nc5ccccc5)cc4)c4nc(c(-c5ccc(S(=O)(=O)Nc6ccccc6)cc5)c5ccc2[nH]5)C=C4)C=C3)cc1	TGI	> 31.6 µM
C#C[C@]1(O)CC[C@H]2[C@@H]3CCC4=CC(=NCCOC(=O)c5cccc6c(=O)c7ccccc7[nH]c56)CC[C@@H]4[C@H]3CC[C@@]21C	TGI	> 100 µM

Query :: Entry O=C(O)c1cccc2cccc(-c3c4ccc(=O)cc-4oc4cc(O)ccc34)c12 : reported TGI = ?
Result :: > 100 µM

Query :: Entry CC(C)(CN1CCCCC1)C(/C=C/c1ccc(Cl)c(Cl)c1)=N\NC(=O)N/N=C(/C=C/c1ccc(Cl)c(Cl)c1)C(C)(C)CN1CCCCC1 : reported TGI = ?
Result :: > 10 µM

###

- System: SK-MEL-5 melanoma
- assayInfo: NCI tumour cell line growth inhibition, 48 h
measurementType: TGI

These solved cases illustrate the format of a correct answer.
compound	TGI
O=C1C2c3[nH]c4ccccc4c3C3CCCC3C2C(=O)N1c1ccccc1 (stereo unspecified)	> 100 µM
Cc1ccc([N+](=O)[O-])cc1S(=O)(=O)Nc1ccc(C(=O)/C=C/c2cccs2)cc1	33.1 µM
Cc1cc(C)c(S(=O)(=O)N2CCN(S(=O)(=O)c3c(C)cc(C)cc3C)OCCCCCO2)c(C)c1	> 100 µM
O=C1CC(=O)NC(=NN2C(=O)CSC2c2ccccc2)N1 (stereo unspecified)	> 100 µM
COc1nc(N)c(C#N)c(C#N)c1C#N	> 10 µM

Kindly consider the entry below.
Query :: Which TGI is reported with SK-MEL-5 melanoma for this entry: COc1ccc(/C=N/c2nc3cc4sc(/N=C/c5ccc(OC)cc5)nc4cc3s2)cc1 ?
Result :: > 100 µM

###

- Test system: SN12C renal
- assayInfo: NCI tumour cell line growth inhibition, 48 h
measurementType: TGI (µM)
Express your answer in µM, writing the number without its unit.

>>> print(df.to_string())
                                   compound  measurednumber
0  FC(F)(F)c1nnn[n-]1.[Au+].c1ccc([PH+](c2ccccc2)c2ccccc2)cc1            16.4
1  ClCc1ccc(-c2ccc(Cn3cnc4nc(Cl)nc(Cl)c43)cc2)cc1            12.3
2  CN1CCN(CCCOc2ccc3nc(Nc4cc(Cl)cc(Cl)c4)ccc3c2)CC1            3.77
3  COc1ccc2[nH]c(S(=O)(=O)N3CC(CCl)c4ccc(N)cc43)cc2c1 (stereo unspecified)            16.5

Kindly consider the entry below.
Query :: Entry Oc1ccc2ccccc2c1CN(Cc1c(O)ccc2ccccc12)C1CCCCC1 : reported TGI = ?
Result :: 28
